Every entry's value here was drawn from patent US5767124A.

- PROTOCOL_SUMMARY: Thermal stability of neat compound (solid state, HPLC)
- Assay type: physicochemical
- ASSAY_SETUP: solid state, 80 °C, 4 Wks, in the dark; read-out: % Initial
PROPERTY: remaining at 672 h (%)
One number for each entry, in %.

The reported remaining at 672 h of the compound CC(C)(N)C(=O)N[C@H](COCc1ccccc1)C(=O)N1CCC2(CC1)CN(S(C)(=O)=O)c1ccccc12 [Form II] was 99.2

====

- PROTOCOL_SUMMARY: Thermal stability of neat compound (solid state, HPLC)
- Format: physicochemical
- ASSAY_SETUP: solid state, 60 °C, 2 Wks, in the dark; read-out: % Initial
- Method: The solid state stability of neat compound was assessed by storage of the drug in glass screw-cap vials in the dark. Samples were assayed by HPLC and the parent compound was quantitatively analyzed. The isocratic method that was employed is outlined below: Column: Beckman Ultrasphere ODS (250×4.6 mm, 5 μ) Mobile Phase: 0.1% TEA, pH 4.0 with H3 PO4 :Acetonitrile (65:35) Detection Wavelength: 228 nm Column Temperature: Ambient […] The results shown below for Forms I and II were calculated as weight percent.
PROPERTY: remaining at 336 h (%)
Give bare numbers, in %.

The reported remaining at 336 h of the compound CC(C)(N)C(=O)N[C@H](COCc1ccccc1)C(=O)N1CCC2(CC1)CN(S(C)(=O)=O)c1ccccc12 [Form II] was 99.6
